system: barnyardgrass (Echinochloa crus-galli); test: Test A pre-/postemergence greenhouse herbicide test; format: in vivo; settings: Echinochloa crus-galli, pre-emergence, 240 h; Preemergence, 125 g ai/ha; 0 to 100 scale (0 no effect, 100 complete control), approx. 10 d; read-out: Plant response rating, Barnyardgrass

# COMPOUND, UNIT LABEL, pest or weed control at 125 g/ha
data = [
    ("Cc1cc(=O)n(-c2ccc(C(F)(F)F)cc2)nc1Oc1ccnc(C(F)(F)F)c1", "%", 40),
    ("Cc1cc(=O)n(-c2ccc(C(F)(F)F)cc2)nc1Cc1ccnc(C(F)(F)F)c1", "%", 80),
    ("CCOc1cc(=O)n(-c2ccc(F)cc2)nc1C(O)c1ccnc(C(F)(F)F)c1 (stereo not shown)", "%", 20),
    ("COc1cc(=O)n(-c2ccc(F)cc2)nc1Cc1ccnc(C(F)(F)F)c1", "%", 80),
]

---

test system: downy bromegrass (Bromus tectorum); test: Test D pre-/postemergence controlled growth environment herbicide test; assay type: in vivo; settings: Postemergence, 31 g ai/ha, scale 0 to 100
# maps each entry to its Plant response rating

# SAMPLE SMILES, Plant response rating
data = [
    ("Cc1cc(=O)n(-c2ccc(C(F)(F)F)cc2)nc1Cc1ccnc(C(F)(F)F)c1", 10),
    ("COc1cc(=O)n(-c2ccc(F)cc2)nc1Cc1ccnc(C(F)(F)F)c1", 10),
    ("Cc1cc(=O)n(-c2ccc(F)cc2)nc1Oc1ccnc(C(F)(F)F)c1", 10),
    ("Cc1cc(=O)n(-c2ccc(F)cc2)nc1Cc1ccnc(C(F)(F)F)c1", 0),
]

---

test system: foxtail, green (green foxtail, Setaria viridis); test: Test D pre-/postemergence controlled growth environment herbicide test; format: in vivo; conditions: Postemergence, 31 g ai/ha, scale 0 to 100
From the text: […]

# SAMPLE SMILES, Plant response rating
records = [
    ("Cc1cc(=O)n(-c2ccc(F)cc2)nc1Cc1ccnc(C(F)(F)F)c1", 0),
    ("Cc1cc(=O)n(-c2ccc(F)cc2)nc1Oc1ccnc(C(F)(F)F)c1", 10),
    ("COc1cc(=O)n(-c2ccc(F)cc2)nc1Cc1ccnc(C(F)(F)F)c1", 10),
    ("Cc1cc(=O)n(-c2ccc(C(F)(F)F)cc2)nc1Cc1ccnc(C(F)(F)F)c1", 0),
]

---

test system: blackgrass (Alopecurus myosuroides); test: Test C pre-/postemergence greenhouse herbicide test; type: in vivo; conditions: Alopecurus myosuroides, post-emergence; Blackgrass; Postemergence; 62 g ai/ha; read-out: Plant response rating
ENDPOINT: pest or weed control at 62 g/ha (%)

# MOLECULE, NUMERIC RESULT
records = [
    ("COc1cc(=O)n(-c2ccc(F)cc2)nc1Cc1ccnc(C(F)(F)F)c1 [Compound 17]", 5),
    ("Cc1cc(=O)n(-c2ccc(F)cc2)nc1Cc1ccnc(C(F)(F)F)c1 [Compound 1]", 5),
    ("COc1cc(=O)n(-c2ccc(C(F)(F)F)cc2)nc1Cc1ccnc(C(F)(F)F)c1 [Compound 16]", 5),
    ("Cc1cc(Oc2ccnc(C(F)(F)F)c2)nn(-c2ccc(C(F)(F)F)cc2)c1=O [Compound 6]", 35),
    ("Cc1cc(=O)n(-c2ccc(C(F)(F)F)cc2)nc1Cc1ccnc(C(F)(F)F)c1 [Compound 2]", 5),
    ("Cc1cc(=O)n(-c2ccc(F)cc2)nc1Oc1ccnc(C(F)(F)F)c1 [Compound 14]", 5),
]
